Biological target: Transient receptor potential cation channel subfamily M member 8 (Rattus norvegicus, UniProt Q8R455)
Sequence (Q8R455 whole entry): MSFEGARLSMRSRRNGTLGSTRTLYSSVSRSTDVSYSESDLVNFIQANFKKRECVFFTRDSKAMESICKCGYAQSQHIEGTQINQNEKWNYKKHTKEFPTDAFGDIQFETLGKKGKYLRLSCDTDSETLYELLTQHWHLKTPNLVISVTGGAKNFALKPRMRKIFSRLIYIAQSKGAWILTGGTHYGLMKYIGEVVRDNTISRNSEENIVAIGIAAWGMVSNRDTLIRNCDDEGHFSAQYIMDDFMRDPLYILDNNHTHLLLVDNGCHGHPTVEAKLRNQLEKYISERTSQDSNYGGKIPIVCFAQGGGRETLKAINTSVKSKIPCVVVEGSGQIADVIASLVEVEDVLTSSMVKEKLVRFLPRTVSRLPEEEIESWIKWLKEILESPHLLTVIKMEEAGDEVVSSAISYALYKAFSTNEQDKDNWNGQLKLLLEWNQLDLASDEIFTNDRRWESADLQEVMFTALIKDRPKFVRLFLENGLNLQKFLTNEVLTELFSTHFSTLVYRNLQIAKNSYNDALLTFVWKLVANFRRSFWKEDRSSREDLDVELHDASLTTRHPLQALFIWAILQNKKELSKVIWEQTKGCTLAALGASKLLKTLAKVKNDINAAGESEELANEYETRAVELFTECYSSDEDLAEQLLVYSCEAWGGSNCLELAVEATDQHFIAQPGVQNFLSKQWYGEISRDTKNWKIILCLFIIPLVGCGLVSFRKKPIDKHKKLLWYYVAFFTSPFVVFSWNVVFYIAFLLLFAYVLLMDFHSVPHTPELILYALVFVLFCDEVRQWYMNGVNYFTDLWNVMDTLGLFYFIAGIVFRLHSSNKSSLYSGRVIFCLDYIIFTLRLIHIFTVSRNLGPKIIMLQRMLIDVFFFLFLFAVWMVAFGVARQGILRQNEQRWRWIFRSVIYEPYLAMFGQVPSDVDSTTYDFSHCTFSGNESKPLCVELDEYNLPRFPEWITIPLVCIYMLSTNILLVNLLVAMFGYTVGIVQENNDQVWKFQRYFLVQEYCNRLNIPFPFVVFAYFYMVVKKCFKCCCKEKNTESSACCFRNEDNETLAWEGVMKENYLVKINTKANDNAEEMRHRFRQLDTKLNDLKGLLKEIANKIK
Experiment: Antagonist activity at recombinant rat TRPM8 stably expressed in HEK293 cells assessed as inhibition of menthol-induced intracellular calcium level by Fluo-4NW probe based fluorescence assay
Assay type: cell-based
reported.property: pIC50
Would you please state pIC50, meaning minus log10 of the concentration in mol/L, as a bare number?

Q) Item CC(C)[C@@H]1CC[C@@H](C)C[C@H]1NC(=O)c1ccc(-c2ccccc2)cc1 has what recorded pIC50?
A) 6.93

====

Target: Transient receptor potential cation channel subfamily M member 8 (Homo sapiens)
Sequence (Q7Z2W7 whole entry): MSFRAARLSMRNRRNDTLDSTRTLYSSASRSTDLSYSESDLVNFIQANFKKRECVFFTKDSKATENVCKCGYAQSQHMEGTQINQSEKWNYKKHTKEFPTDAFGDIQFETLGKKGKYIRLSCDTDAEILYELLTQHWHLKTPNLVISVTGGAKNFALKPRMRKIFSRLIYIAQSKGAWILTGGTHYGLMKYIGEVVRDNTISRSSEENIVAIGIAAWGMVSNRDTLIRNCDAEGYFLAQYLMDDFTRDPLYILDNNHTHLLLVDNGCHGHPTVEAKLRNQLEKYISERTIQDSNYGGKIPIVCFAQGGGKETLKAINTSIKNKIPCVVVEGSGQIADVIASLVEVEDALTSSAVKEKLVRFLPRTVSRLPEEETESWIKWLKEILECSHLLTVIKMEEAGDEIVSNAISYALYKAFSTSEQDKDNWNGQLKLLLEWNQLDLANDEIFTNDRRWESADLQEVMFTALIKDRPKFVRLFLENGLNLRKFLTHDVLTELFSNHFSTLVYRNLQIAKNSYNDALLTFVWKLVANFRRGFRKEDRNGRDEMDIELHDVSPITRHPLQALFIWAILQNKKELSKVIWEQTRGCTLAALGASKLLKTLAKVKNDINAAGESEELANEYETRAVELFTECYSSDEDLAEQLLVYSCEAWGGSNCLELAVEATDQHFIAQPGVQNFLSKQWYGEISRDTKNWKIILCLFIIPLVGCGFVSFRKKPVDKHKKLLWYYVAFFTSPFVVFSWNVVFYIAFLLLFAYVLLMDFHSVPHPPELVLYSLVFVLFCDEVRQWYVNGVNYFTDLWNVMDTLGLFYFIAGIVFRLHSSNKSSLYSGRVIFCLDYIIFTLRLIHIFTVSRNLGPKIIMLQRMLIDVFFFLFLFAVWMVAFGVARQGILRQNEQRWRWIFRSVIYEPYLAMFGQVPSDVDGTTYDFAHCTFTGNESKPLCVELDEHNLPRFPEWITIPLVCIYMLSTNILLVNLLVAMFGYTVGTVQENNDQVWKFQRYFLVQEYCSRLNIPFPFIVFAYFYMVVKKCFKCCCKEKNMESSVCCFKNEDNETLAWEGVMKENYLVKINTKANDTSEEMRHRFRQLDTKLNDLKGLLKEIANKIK
Experiment: Antagonist activity at recombinant human TRPM8 stably expressed in HEK293 cells assessed as inhibition of icilin-induced intracellular calcium level by Fluo-4NW probe based fluorescence assay
Format: cell-based
reported.property: pIC50
Would you please state pIC50, meaning minus log10 of the concentration in mol/L, as a bare number?

Q) Item CC(C)[C@@H]1CC[C@@H](C)C[C@H]1NC(=O)c1ccc(-c2ccccc2)cc1 has what recorded pIC50?
A) 5.74

====

Target: Transient receptor potential cation channel subfamily M member 8 (Rattus norvegicus)
Assay: Antagonist activity at recombinant rat TRPM8 stably expressed in HEK293 cells assessed as inhibition of icilin-induced intracellular calcium level preincubated for 5 mins followed by icilin addition by Fluo-4Am dye based fluorescence assay
Assay type: cell-based
reported.property: IC50
Dear colleague, please send the value followed by its unit.

Q) So what IC50 did C=C(C)[C@@H]1CCC(C)=C[C@H]1c1c(O)cc(CCC)cc1O get with Transient receptor potential cation channel subfamily M member 8 (Rattus norvegicus)?
A) 900 nM
